# credit: patent US20090041783A1

- Tested target: T1, cynomolgus monkey D1D2-human D3 chimeric GPVI-human Fc fusion protein (GPVI-FFH-hFc) (cynomolgus monkey (D1, D2) and human …)
- T1 construct: also called Monkey GPVI
- T1 sequence (chain, as listed by the source mutant limits assumed): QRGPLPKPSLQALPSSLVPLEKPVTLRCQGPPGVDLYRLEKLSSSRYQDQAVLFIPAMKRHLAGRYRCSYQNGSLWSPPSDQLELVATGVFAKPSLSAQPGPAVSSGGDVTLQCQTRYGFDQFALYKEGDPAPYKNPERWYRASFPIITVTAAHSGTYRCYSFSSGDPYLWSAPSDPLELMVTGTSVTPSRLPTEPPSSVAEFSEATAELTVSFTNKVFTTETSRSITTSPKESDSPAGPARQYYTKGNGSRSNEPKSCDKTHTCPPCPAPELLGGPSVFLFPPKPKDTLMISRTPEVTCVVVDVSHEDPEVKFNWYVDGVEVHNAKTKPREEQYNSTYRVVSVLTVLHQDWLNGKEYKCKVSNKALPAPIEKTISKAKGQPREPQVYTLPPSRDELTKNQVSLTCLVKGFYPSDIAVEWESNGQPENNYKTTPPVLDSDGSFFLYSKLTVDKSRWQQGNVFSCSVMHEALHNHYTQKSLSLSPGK
- Experimental details: SPR (BIACORE3000), GPVI-Fc on CM5 chip, antibody 1.25-40 nM as analyte, bivalent analyte fit
Experimental readout: pKd
One number for each entry, as −log10 of the molar value.

INSERT INTO assay_data (binder, assay_result) VALUES
  ('F1232-17-1 (antibody, V domains shown, Mouse hybridoma monoclonal antibody) VH: VQLVESGGDLVKPGGSLKLSCAASGFTFSSYGMSWVRQTPDKRLEWVATISSGGSYTYYPDNVKGRFTISRDNAKNTLYLQMSSLNSEDTAMYYCARQVYYFGSCDYWGQGTTLTVSS VL: DIVLTQSPASLAVSLGQRATISCRASESVDNYGISFMHWYQQKPGQPPKLLIYRASNLESGIPARFSGSGSRTDFTLTINPVETDDVATYYCQQSNKDPWTFGGGTKLEIKR', 9.75);

I'm hoping you can list pKd for every binder here, please.
1. F1232-7-1 (antibody, V domains shown, Mouse hybridoma monoclonal antibody; also called F1232-7-1 antibody) VH: VQLQQSGPELVRPGESVKISCKGSGYTFTDYAIHWVKLSHAKSLEWIGVISIYYDDTNYNQKFKGKATMTVDKSSSTAYMELARLTSEDSAIYYCARRRDSSGPYAMDYWGQGTSVTVSS VL: DIVLTQSPASLAVSLGQRATISCRASESVDSYGNSFMHWYQQKPGQPPKLLIYRASNLESGIPARFSGSGSRTDFTLTINPVEADDVATYYCQQSNEDPYTFGGGTKLEIKR
2. F1201-18 (antibody, V domains shown, Mouse hybridoma monoclonal antibody) VH: VQLVESGGGLVKPGGSLKLSCAASGFTFSSYAMSWVRQTPEKRLEWVAIISSGGSYTYYPDSVKGRFTISRDNAKNTLYLHMSSLRSEDTAMYYCARQGGGYFDYWGQGTTLTVSS VL: DIVLTQSPASLAVSLGQRATISCRASESVDSYGNSFMHWYQQKPGQPPKLLIYRASNVESGIPARFSGSGSRTDFTLTINPVEADDVATYYCQQSNEDPPTFGAGTKLELKR

Response:
[6.46, 9.21]
